molecular target: human 5-HT2a receptors (Homo sapiens); experiment: Competition radioligand binding, h5-HT2a ([3H]Ketanserin)
Sequence (P28223 whole entry): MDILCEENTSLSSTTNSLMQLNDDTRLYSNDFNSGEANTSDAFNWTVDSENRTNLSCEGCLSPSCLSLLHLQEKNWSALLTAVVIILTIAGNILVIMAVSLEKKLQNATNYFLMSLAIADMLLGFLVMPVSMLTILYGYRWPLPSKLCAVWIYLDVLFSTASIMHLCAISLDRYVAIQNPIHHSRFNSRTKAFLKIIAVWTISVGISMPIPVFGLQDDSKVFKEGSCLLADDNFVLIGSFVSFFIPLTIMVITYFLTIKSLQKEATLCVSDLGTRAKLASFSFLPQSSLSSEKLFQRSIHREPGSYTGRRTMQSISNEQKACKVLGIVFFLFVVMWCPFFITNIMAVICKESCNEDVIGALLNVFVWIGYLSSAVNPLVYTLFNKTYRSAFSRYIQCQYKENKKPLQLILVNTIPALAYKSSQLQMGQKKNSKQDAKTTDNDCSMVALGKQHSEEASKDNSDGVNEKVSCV
pKi: −log10 of the molar value.
Rule: pKi of 7 or more gives 1 (yes); anything lower gives 0 (no).

| Compound | Assayed target | Group label |
| --- | --- | --- |
| Cc1ccc(CN(CC[C@@H]2CCCN2C)Cc2ccccc2)cc1 [Example 22] | human 5-HT2a receptors (Homo sapiens) | 1 (yes) |
| COc1cccc(CN(CCC2CCCN2C)Cc2ccccc2)c1 (stereo not shown) [Example 33] | human 5-HT2a receptors (Homo sapiens) | 1 (yes) |
| Cc1cc(CN(CC[C@@H]2CCCN2C)Cc2cccc(O)c2)cc(C)c1O [Example 35] | human 5-HT2a receptors (Homo sapiens) | 0 (no) |
| COc1cc(CN(CC[C@@H]2CCCN2C)Cc2ccc(Cl)cc2)ccc1O [Example 50] | human 5-HT2a receptors (Homo sapiens) | 0 (no) |
| CN1CCCC1CCN(Cc1cccc(O)c1)Cc1cccc(O)c1 (racemic) [Example 3] | human 5-HT2a receptors (Homo sapiens) | 0 (no) |
| CC(C)c1ccc(CN(CC[C@@H]2CCCN2C)Cc2ccc(Cl)cc2)cc1 [Example 46] | human 5-HT2a receptors (Homo sapiens) | 1 (yes) |
| Cc1cc(CN(CC[C@@H]2CCCN2C)Cc2ccc(Cl)cc2)cc(C)c1O [Example 48] | human 5-HT2a receptors (Homo sapiens) | 0 (no) |
| CN1CCCC1CCN(Cc1ccc(Cl)cc1)Cc1ccc(Cl)cc1 (racemic) [Example 5] | human 5-HT2a receptors (Homo sapiens) | 1 (yes) |
| COc1ccc(CN(CC[C@@H]2CCCN2C)Cc2cccc(O)c2)cc1 [Example 36] | human 5-HT2a receptors (Homo sapiens) | 0 (no) |
| CN1CCC[C@H]1CCN(Cc1ccc(Cl)cc1)Cc1ccc(O)c(Cl)c1 [Example 47] | human 5-HT2a receptors (Homo sapiens) | 0 (no) |
| CSc1ccc(CN(CC[C@@H]2CCCN2C)Cc2ccc(Cl)cc2)cc1 [Example 40] | human 5-HT2a receptors (Homo sapiens) | 1 (yes) |
| CN1CCC[C@H]1CCN(Cc1ccc(O)cc1)Cc1cccc(O)c1 [Example 20] | human 5-HT2a receptors (Homo sapiens) | 0 (no) |

====

target: human 5-HT6 (h5-HT6) receptors (Homo sapiens, UniProt P50406); construct: purchased Receptor Biology, Inc. (Beltsville, Md.); host or cells: HEK-293 cells; assay: Competition radioligand binding, h5-HT6 ([3H]LSD); details: membranes of HEK-293 cells, 1 hr RT
Sequence (P50406 whole entry): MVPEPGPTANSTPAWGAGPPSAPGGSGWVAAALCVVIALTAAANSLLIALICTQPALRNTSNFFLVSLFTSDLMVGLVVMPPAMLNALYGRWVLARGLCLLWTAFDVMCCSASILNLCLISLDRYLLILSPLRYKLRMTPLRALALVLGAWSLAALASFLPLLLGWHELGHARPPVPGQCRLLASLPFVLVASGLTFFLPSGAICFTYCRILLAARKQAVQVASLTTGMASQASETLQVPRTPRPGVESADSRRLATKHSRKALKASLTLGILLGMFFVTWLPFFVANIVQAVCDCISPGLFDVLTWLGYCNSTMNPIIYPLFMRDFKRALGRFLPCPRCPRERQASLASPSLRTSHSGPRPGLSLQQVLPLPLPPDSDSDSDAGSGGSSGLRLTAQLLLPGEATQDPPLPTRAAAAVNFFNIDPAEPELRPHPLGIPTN
# thresholds on Ki define classes: class 1 (below 40 nM), class 2 (40 nM to below 200 nM), class 3 (200 nM or more)

| Molecule | Group label |
| --- | --- |
| COc1cccc(CN(CCC2CCCN2C)Cc2ccccc2)c1 (centres unmarked) | class 1 |
| CN1CCC[C@H]1CCN(Cc1ccc(C(C)(C)C)cc1)Cc1cccc(O)c1 | class 3 |
| CN1CCC[C@H]1CCN(Cc1cccc(O)c1)Cc1cccc(O)c1 | class 3 |
| CN1CCCC1CCN(Cc1ccccc1)Cc1ccc(F)cc1 (centres unmarked) | class 1 |
| Cc1ccc(C)c(CN(CCC2CCCN2C)Cc2ccccc2)c1 (centres unmarked) | class 2 |
| COc1ccc(CN(CC[C@@H]2CCCN2C)Cc2cccc(O)c2)cc1 | class 3 |
| CN1CCC[C@H]1CCN(Cc1ccc(O)cc1)Cc1ccc(Cl)cc1 | class 2 |
| CN1CCC[C@H]1CCN(Cc1ccc(Cl)cc1)Cc1ccc(O)c(Cl)c1 | class 2 |
| CN1CCCC1CCN(Cc1ccccc1)Cc1ccccc1 (racemic) | class 2 |

These measurements were taken from patent US20060063932A1.
